Reference source for all entries: patent US20230103444A1

assay: Mouse liver microsome stability; settings: CD-1, mouse, liver microsomes, pH 7.4, In Vitro Half-Life (Min), second series, different liver microsome preparation
One threshold, 30 min, splits the recorded half-life at 10 μM values: lower ones are Y, equal or higher ones are N.

[[record]]
compound = "Cc1cc(Oc2ccc(NC(=O)c3c[nH]c4ccccc34)cc2)nc(N2CCCC2)n1 [Compound 6.14]"
class_name = "N"

[[record]]
compound = "O=C(Cc1cccs1)Nc1ccc(Nc2nc(N3CCCC3)ncc2F)cc1 [Compound 6.2]"
class_name = "Y"

[[record]]
compound = "Cc1cc(Oc2ccc(NC(=O)Cc3cccs3)cc2)nc(Cl)n1 [Compound 6.12]"
class_name = "Y"

[[record]]
compound = "Cc1cc(Nc2ccc(NC(=O)c3c[nH]c4ncccc34)cc2)nc(N2CCCC2)n1 [Compound 6.9]"
class_name = "N"

[[record]]
compound = "COc1cnc(N2CCCC2)nc1Nc1ccc(NC(=O)Cc2cccs2)cc1 [Compound 6.10]"
class_name = "Y"

[[record]]
compound = "Cc1cc(Nc2ccc(NC(=O)Cc3cccs3)cc2)nc(N2CCOCC2)n1 [Compound 6.15]"
class_name = "Y"

[[record]]
compound = "Cc1nc(N2CCCC2)nc(Nc2ccc(NC(=O)Cc3cccs3)cc2)c1F [Compound 6.1]"
class_name = "N"

[[record]]
compound = "Cc1cc(Oc2ccc(NC(=O)Cc3cccs3)cc2)nc(N2CCCC2)n1 [Compound 6.13]"
class_name = "N"

